Protocol notes: CelltiterGlo viability cell assay
Format: cell-based
Setup conditions: human, RPMI-8226 multiple myeloma cells, 8226, 6 day, 1 uM; read-out: viability Replicate 1
Description: Supplementary Figure 13. […] Viability of (a) Multiple Myeloma lines and (b) Breast Cancer cell lines following 3 or 6 days treatment with […] manufacturer’s instructions as described in the Supplementary methods. Data are normalized to DMSO control. N=3 biological replicates, +/- SEM. Source data are provided as a Source Data […] CelltiterGlo viability cell assay […]

Item smiles | viability at 6 day, 1 µM, %
COc1cc(OC)cc(-c2noc(N3CCN(C)C4(CCN(c5ccnc(C)c5)CC4)C3)n2)c1 | 95

###

Protocol notes: CelltiterGlo viability cell assay
Type: cell-based
Setup conditions: human, HCC1806 breast cancer cells, HCC1806, 6 day, 9.5 uM; read-out: viability Replicate 2

Item smiles | viability at 6 day, 9.5 µM
COc1cc(OC)cc(-c2noc(N3CCN(C)C4(CCN(c5ccnc(C)c5)CC4)C3)n2)c1 | 25%

###

Protocol notes: CelltiterGlo viability cell assay
Assay type: cell-based
Setup conditions: human, RPMI-8226 cells, 8226, 3 day, 0.01 uM; read-out: viability Average
Measured attribute: viability at 3 day, 0.01 µM (%)

Item smiles | Measured attribute | Unit descriptor | Val
COc1cc(OC)cc(-c2noc(N3CCN(C)C4(CCN(c5ccnc(C)c5)CC4)C3)n2)c1 | viability at 3 day, 0.01 µM | % | 98.4

###

Protocol notes: CelltiterGlo viability cell assay
Type: cell-based
Setup conditions: human, SKMM2 multiple myeloma cells, SKMM2, 3 day, 0.3 uM; read-out: viability Average
Measured attribute: viability at 3 day, 0.3 µM (%)

Item smiles | Val
COc1cc(OC)cc(-c2noc(N3CCN(C)C4(CCN(c5ccnc(C)c5)CC4)C3)n2)c1 | 101

###

Protocol notes: CelltiterGlo viability cell assay
Assay type: cell-based
Setup conditions: human, SKMM2 multiple myeloma cells, SKMM2, 3 day, 0.1 uM; read-out: viability Replicate 3

Item smiles | Unit descriptor | viability at 3 day, 0.1 µM
COc1cc(OC)cc(-c2noc(N3CCN(C)C4(CCN(c5ccnc(C)c5)CC4)C3)n2)c1 | % | 105

###

Protocol notes: CelltiterGlo viability cell assay
Assay type: cell-based
Setup conditions: human, RPMI-8226 cells, 8226, 3 day, 0.01 uM; read-out: viability Replicate 2
Measured attribute: viability at 3 day, 0.01 µM (%)

Item smiles | Measured attribute | Val
COc1cc(OC)cc(-c2noc(N3CCN(C)C4(CCN(c5ccnc(C)c5)CC4)C3)n2)c1 | viability at 3 day, 0.01 µM | 100

###

Protocol notes: CelltiterGlo viability cell assay
Assay type: cell-based
Setup conditions: human, HCC1143 breast cancer cells, HCC1143, 6 day, 30 uM; read-out: viability Replicate 3

Item smiles | viability at 6 day, 30 µM
COc1cc(OC)cc(-c2noc(N3CCN(C)C4(CCN(c5ccnc(C)c5)CC4)C3)n2)c1 | 17.3%

###

Protocol notes: CelltiterGlo viability cell assay
Type: cell-based
Setup conditions: human, HCC1806 breast cancer cells, HCC1806, 6 day, 3 uM; read-out: viability Replicate 1
Measured attribute: viability at 6 day, 3 µM (%)

Item smiles | Measured attribute | Val
COc1cc(OC)cc(-c2noc(N3CCN(C)C4(CCN(c5ccnc(C)c5)CC4)C3)n2)c1 | viability at 6 day, 3 µM | 63.2

Source: paper PMC6917776
